Recorded MIC by entry
test system: Fusarium oxysporum; test: Antifungal activity against Fusarium oxysporum VKM F-140 after 48 hrs by broth microdilution method; assay type: functional
Supply the numeric figure in µg/mL, leaving out any unit text.

[in] Given C[C@@H]1[C@H](O)[C@@H](C)/C=C/C=C/C=C/C=C/C=C/C=C/C=C/[C@H](O[C@H]2O[C@@H](C)[C@H](O)[C@@H](N)[C@H]2O)C[C@@H]2O[C@](O)(C[C@@H](O)[C@H](O)CC[C@@H](O)C[C@@H](O)C[C@@H](O)CC(=O)O[C@H]1C)C[C@H](O)[C@H]2C(N)=O , respond with its MIC.
[out] 4

[in] Given C[C@@H]1[C@H](O)[C@@H](C)/C=C/C=C/C=C/C=C/C=C/C=C/C=C/[C@H](O[C@@H]2O[C@H](C)[C@@H](O)[C@H](N)[C@@H]2O)C[C@@H]2O[C@](O)(C[C@@H](O)C[C@@H](O)[C@H](O)CC[C@@H](O)C[C@@H](O)CC(=O)O[C@H]1C)C[C@H](O)[C@H]2C(=O)O , respond with its MIC.
[out] 4

[in] Given C[C@@H]1[C@H](O)[C@@H](C)/C=C/C=C/C=C/C=C/C=C/C=C/C=C/[C@H](O[C@H]2O[C@@H](C)[C@H](O)[C@@H](N)[C@H]2O)C[C@@H]2O[C@](O)(C[C@@H](O)[C@H](O)CC[C@@H](O)C[C@@H](O)C[C@@H](O)CC(=O)O[C@H]1C)C[C@H](O)[C@H]2C(=O)N[C@H]1[C@H](O)[C@@H](O)[C@H](CO)O[C@H]1O , respond with its MIC.
[out] 8

[in] Given C[C@@H]1[C@H](O)[C@@H](C)/C=C/C=C/C=C/C=C/C=C/C=C/C=C/[C@H](O[C@H]2O[C@@H](C)[C@H](O)[C@@H](N)[C@H]2O)C[C@@H]2O[C@](O)(C[C@@H](O)[C@H](O)CC[C@@H](O)C[C@@H](O)C[C@@H](O)CC(=O)O[C@H]1C)C[C@H](O)[C@H]2C(=O)NCCO , respond with its MIC.
[out] 4

[in] Given C[C@@H]1[C@H](O)[C@@H](C)/C=C/C=C/C=C/C=C/C=C/C=C/C=C/[C@H](O[C@H]2O[C@@H](C)[C@H](O)[C@@H](NCCCN)[C@H]2O)C[C@@H]2O[C@](O)(C[C@@H](O)[C@H](O)CC[C@@H](O)C[C@@H](O)C[C@@H](O)CC(=O)O[C@H]1C)C[C@H](O)[C@H]2C(=O)O , respond with its MIC.
[out] 4

[in] Given COC(=O)C(CO)NC(=O)[C@H]1[C@@H]2C[C@@H](O[C@H]3O[C@@H](C)[C@H](O)[C@@H](N)[C@H]3O)/C=C/C=C/C=C/C=C/C=C/C=C/C=C/[C@H](C)[C@@H](O)[C@@H](C)[C@H](C)OC(=O)C[C@H](O)C[C@H](O)C[C@H](O)CC[C@@H](O)[C@H](O)C[C@](O)(C[C@@H]1O)O2 (some centres not stated) , respond with its MIC.
[out] 4

[in] Given COC(=O)[C@@H](NC(=O)[C@H]1[C@@H]2C[C@@H](O[C@H]3O[C@@H](C)[C@H](O)[C@@H](N)[C@H]3O)/C=C/C=C/C=C/C=C/C=C/C=C/C=C/[C@H](C)[C@@H](O)[C@@H](C)[C@H](C)OC(=O)C[C@H](O)C[C@H](O)C[C@H](O)CC[C@@H](O)[C@H](O)C[C@](O)(C[C@@H]1O)O2)C(C)C , respond with its MIC.
[out] 8

[in] Given COC(=O)[C@H](CO)NC(=O)[C@H]1[C@@H]2C[C@@H](O[C@H]3O[C@@H](C)[C@H](O)[C@@H](N)[C@H]3O)/C=C/C=C/C=C/C=C/C=C/C=C/C=C/[C@H](C)[C@@H](O)[C@@H](C)[C@H](C)OC(=O)C[C@H](O)C[C@H](O)C[C@H](O)CC[C@@H](O)[C@H](O)C[C@](O)(C[C@@H]1O)O2 , respond with its MIC.
[out] 4

[in] Given C[C@@H]1[C@H](O)[C@@H](C)/C=C/C=C/C=C/C=C/C=C/C=C/C=C/[C@H](O[C@H]2O[C@@H](C)[C@H](O)[C@@H](NC[C@]3(O)OC[C@@H](O)[C@@H](O[C@@H]4O[C@H](CO)[C@H](O)[C@H](O)[C@H]4O)[C@@H]3O)[C@H]2O)C[C@@H]2O[C@](O)(C[C@@H](O)[C@H](O)CC[C@@H](O)C[C@@H](O)C[C@@H](O)CC(=O)O[C@H]1C)C[C@H](O)[C@H]2C(=O)O , respond with its MIC.
[out] 8

[in] Given C[C@@H]1[C@H](O)[C@@H](C)/C=C/C=C/C=C/C=C/C=C/C=C/C=C/[C@H](O[C@H]2O[C@@H](C)[C@H](O)[C@@H](N)[C@H]2O)C[C@@H]2O[C@](O)(C[C@@H](O)[C@H](O)CC[C@@H](O)C[C@@H](O)C[C@@H](O)CC(=O)O[C@H]1C)C[C@H](O)[C@H]2C(=O)O , respond with its MIC.
[out] 4
